src = patent US20250027068

Molecular target: pooled human IgG (human IgG1, 2, 3 and 4)
MEASURE: Enzyme Activity Endpoint Assay (purified): Fab′2 (ng/µL)
Report the figure in ng/µL without appending any unit label.

Query: Request the reported Enzyme Activity Endpoint Assay (purified): Fab′2 associated with PRT-681 (protein) MQITSVWTKGVTPLTPEQFRYNNEDVIHAPYLAHQGWYDITKAFDGKDNLLCGAATAGNMLHWWFDQNKTEIEAYLSKYPEKQKIIFNNQELFDLRAAINTKDSQTNSQLFNYFRDKAFPNLSARQLGVMPDLVLDMFINGYYLNVFKTQSTDVNRPYQDKDKRGGIFDAVFTRGDQTTLLTARHDLKNKGLNDISTIIKQELTEGRALALSHTYANVSISHVINLWGADFNAEGNLEAIYVTDSDANASIGMKKYYVGINAHGHVAISAKKIEGENIGAQVLGLFTLSSGKEIWQKLSLEHHHHHH
Reply: 915
